Target: HLA-A*24 (human)
Assay: UV-ligand exchange, b2m ELISA
binders and their reported peptide exchange yield

Record excerpt, results attached:
| binder | result |
| --- | --- |
| IYKVGAPTI [… (SEQ ID No 185)] | 50 to 75% |
| YFIDSTNLKTHF [… (SEQ ID No 269)] | 50 to 75% |
| EFGSLHLEFL [… (SEQ ID No 194)] | < 20% |
| LYLKLWNLI [… (SEQ ID No 214)] | 50 to 75% |
| RYISDQLFTNF [… (SEQ ID No 278)] | > 75% |

Task: Return reported peptide exchange yield; argument: WYVNGVNYF [… (SEQ ID No 189)]
Output: 20 to 49%

Task: And AYTLIAPNI [… (SEQ ID No 169)] ?
Output: 50 to 75%

Task: Then MYDSYWRQF [… (SEQ ID No 179)] ?
Output: > 75%

Task: One more binder: YYEVHKELF [… (SEQ ID No 175)]
Output: > 75%

Task: Try this binder too: RYPDNLKHL [… (SEQ ID No 286)]
Output: 20 to 49%
